These data points were gathered from BigSolDB 2.1.

run.parameters: in acetone, 278.15 K
observed.property: solubility (mole fraction)
Number only, please.

Complete the entry with solubility (mole fraction) for CC(C)(C#N)N=NC(C)(C)C#N
0.0518

====

run.parameters: in ethanol, 307.65 K
observed.property: solubility (mole fraction)
Number only, please.

Complete the entry with solubility (mole fraction) for CC(C)(C#N)N=NC(C)(C)C#N
0.0165

====

run.parameters: in ethanol, 312.55 K
observed.property: solubility (mole fraction)
Number only, please.

Complete the entry with solubility (mole fraction) for CC(C)(C#N)N=NC(C)(C)C#N
0.0221

====

run.parameters: in methanol, 323.15 K
observed.property: solubility (mole fraction)
Number only, please.

Complete the entry with solubility (mole fraction) for CC(C)(C#N)N=NC(C)(C)C#N
0.0637

====

run.parameters: in acetone, 297.85 K
observed.property: solubility (mole fraction)
Number only, please.

Complete the entry with solubility (mole fraction) for CC(C)(C#N)N=NC(C)(C)C#N
0.106

====

run.parameters: in methanol, 273.15 K
observed.property: solubility (mole fraction)

Complete the entry with solubility (mole fraction) for CC(C)(C#N)N=NC(C)(C)C#N
0.00441

====

run.parameters: in acetone, 307.95 K
observed.property: solubility (mole fraction)
Number only, please.

Complete the entry with solubility (mole fraction) for CC(C)(C#N)N=NC(C)(C)C#N
0.145

====

run.parameters: in ethyl acetate, 278.15 K
observed.property: solubility (mole fraction)

Complete the entry with solubility (mole fraction) for CC(C)(C#N)N=NC(C)(C)C#N
0.0349

====

run.parameters: in acetone, 322.75 K
observed.property: solubility (mole fraction)
Number only, please.

Complete the entry with solubility (mole fraction) for CC(C)(C#N)N=NC(C)(C)C#N
0.236

====

run.parameters: in methanol, 288.15 K
observed.property: solubility (mole fraction)
Number only, please.

Complete the entry with solubility (mole fraction) for CC(C)(C#N)N=NC(C)(C)C#N
0.00942

====

run.parameters: in ethanol, 322.55 K
observed.property: solubility (mole fraction)
Number only, please.

Complete the entry with solubility (mole fraction) for CC(C)(C#N)N=NC(C)(C)C#N
0.0427

====

run.parameters: in acetone, 318.05 K
observed.property: solubility (mole fraction)
Number only, please.

Complete the entry with solubility (mole fraction) for CC(C)(C#N)N=NC(C)(C)C#N
0.209

====

run.parameters: in ethanol, 278.55 K
observed.property: solubility (mole fraction)
Number only, please.

Complete the entry with solubility (mole fraction) for CC(C)(C#N)N=NC(C)(C)C#N
0.00263

====

run.parameters: in benzene, 317.65 K
observed.property: solubility (mole fraction)
Number only, please.

Complete the entry with solubility (mole fraction) for CC(C)(C#N)N=NC(C)(C)C#N
0.151

====

run.parameters: in acetone, 293.05 K
observed.property: solubility (mole fraction)
Number only, please.

Complete the entry with solubility (mole fraction) for CC(C)(C#N)N=NC(C)(C)C#N
0.0881

====

run.parameters: in acetone, 312.75 K
observed.property: solubility (mole fraction)
Number only, please.

Complete the entry with solubility (mole fraction) for CC(C)(C#N)N=NC(C)(C)C#N
0.176

====

run.parameters: in methanol, 318.15 K
observed.property: solubility (mole fraction)
Number only, please.

Complete the entry with solubility (mole fraction) for CC(C)(C#N)N=NC(C)(C)C#N
0.0479

====

run.parameters: in ethanol, 317.65 K
observed.property: solubility (mole fraction)
Number only, please.

Complete the entry with solubility (mole fraction) for CC(C)(C#N)N=NC(C)(C)C#N
0.0314

====

run.parameters: in methanol, 308.15 K
observed.property: solubility (mole fraction)
Number only, please.

Complete the entry with solubility (mole fraction) for CC(C)(C#N)N=NC(C)(C)C#N
0.0277

====

run.parameters: in ethyl acetate, 287.75 K
observed.property: solubility (mole fraction)
Number only, please.

Complete the entry with solubility (mole fraction) for CC(C)(C#N)N=NC(C)(C)C#N
0.053

====

run.parameters: in benzene, 279.25 K
observed.property: solubility (mole fraction)
Number only, please.

Complete the entry with solubility (mole fraction) for CC(C)(C#N)N=NC(C)(C)C#N
0.0254

====

run.parameters: in ethyl acetate, 282.85 K
observed.property: solubility (mole fraction)
Number only, please.

Complete the entry with solubility (mole fraction) for CC(C)(C#N)N=NC(C)(C)C#N
0.0424

====

run.parameters: in ethyl acetate, 322.95 K
observed.property: solubility (mole fraction)
Number only, please.

Complete the entry with solubility (mole fraction) for CC(C)(C#N)N=NC(C)(C)C#N
0.206

====

run.parameters: in ethanol, 284.35 K
observed.property: solubility (mole fraction)

Complete the entry with solubility (mole fraction) for CC(C)(C#N)N=NC(C)(C)C#N
0.00408

====

run.parameters: in methanol, 313.15 K
observed.property: solubility (mole fraction)
Number only, please.

Complete the entry with solubility (mole fraction) for CC(C)(C#N)N=NC(C)(C)C#N
0.0364

====

run.parameters: in acetone, 288.75 K
observed.property: solubility (mole fraction)
Number only, please.

Complete the entry with solubility (mole fraction) for CC(C)(C#N)N=NC(C)(C)C#N
0.0741

====

run.parameters: in ethanol, 288.95 K
observed.property: solubility (mole fraction)
Number only, please.

Complete the entry with solubility (mole fraction) for CC(C)(C#N)N=NC(C)(C)C#N
0.00511

====

run.parameters: in methanol, 303.15 K
observed.property: solubility (mole fraction)
Number only, please.

Complete the entry with solubility (mole fraction) for CC(C)(C#N)N=NC(C)(C)C#N
0.0212

====

run.parameters: in acetone, 302.95 K
observed.property: solubility (mole fraction)
Number only, please.

Complete the entry with solubility (mole fraction) for CC(C)(C#N)N=NC(C)(C)C#N
0.127

====

run.parameters: in benzene, 312.65 K
observed.property: solubility (mole fraction)
Number only, please.

Complete the entry with solubility (mole fraction) for CC(C)(C#N)N=NC(C)(C)C#N
0.119

====

run.parameters: in benzene, 307.95 K
observed.property: solubility (mole fraction)
Number only, please.

Complete the entry with solubility (mole fraction) for CC(C)(C#N)N=NC(C)(C)C#N
0.0938

====

run.parameters: in ethanol, 293.15 K
observed.property: solubility (mole fraction)

Complete the entry with solubility (mole fraction) for CC(C)(C#N)N=NC(C)(C)C#N
0.00667

====

run.parameters: in ethyl acetate, 293.65 K
observed.property: solubility (mole fraction)
Number only, please.

Complete the entry with solubility (mole fraction) for CC(C)(C#N)N=NC(C)(C)C#N
0.0669

====

run.parameters: in benzene, 283.75 K
observed.property: solubility (mole fraction)

Complete the entry with solubility (mole fraction) for CC(C)(C#N)N=NC(C)(C)C#N
0.0311
